Test system: RhoE promoter
Test: RhoE promoter luc2 luciferase reporter screen for inducers of RhoE expression
Type: cell-based
Conditions: Table 1; luminescence at 24 hours, two replicates per compound
Entry flag: Yes if Composite Z value (induction of RhoE expression) reaches 3; No if it does not.

- compound: "COC(=O)C(C)c1ccc(C(=O)c2cccs2)cc1 (stereo not shown)"
  cat: "Yes"
- compound: "CC[C@H]1OC(=O)[C@H](C)[C@@H](O[C@H]2C[C@@](C)(OC)[C@@H](O)[C@H](C)O2)[C@H](C)[C@@H](O[C@@H]2O[C@H](C)C[C@H](N(C)C)[C@H]2O)[C@](C)(O)C[C@@H](C)C(=O)[C@H](C)[C@@H](O)[C@]1(C)O [erythromycin stearate, reference compound]"
  cat: "Yes"
- compound: "Oc1ccc2c(c1)OC[C@H]1c3cc4c(cc3O[C@@H]21)OCO4"
  cat: "No"
- compound: "COc1ccc(-c2cc(=O)c3c(OC(C)=O)cc(OC(C)=O)cc3o2)cc1 [acacetin diacetate]"
  cat: "Yes"
- compound: "COc1cc(OC)c2c(=O)cc(-c3ccccc3)oc2c1"
  cat: "Yes"
- compound: "O=C(CC(=O)c1ccccc1)c1ccccc1"
  cat: "Yes"
- compound: "O=c1cc(-c2ccc(O)c(O)c2)oc2cc(O)cc(O)c12"
  cat: "No"

----------
Tested on: RhoE promoter
Experiment: RhoE promoter luc2 luciferase reporter screen for inducers of RhoE expression
Type: cell-based
Conditions: Table 1; luminescence at 24 hours, two replicates per compound
Counter-ions that a name gives are not always drawn.
Some molecules, each annotated with its measured Composite Z value (induction of RhoE expression).
readout_name: Composite Z value (induction of RhoE expression)

- molecule: "CCN(CC)CCCC(C)Nc1c2ccc(Cl)cc2nc2ccc(OC)cc12 (stereo not drawn) [Quinacrine dihydrochloride dihydrate, reference compound]"
  experimental_system: "RhoE promoter"
  reported_measurement: 2.324
- molecule: "CC(=O)Oc1ccc(-c2cc(=O)c3c(OC(C)=O)cc(OC(C)=O)cc3o2)cc1 [apigenin triacetate]"
  experimental_system: "RhoE promoter"
  reported_measurement: 4.6992
- molecule: "COC(=O)Nc1nc2ccc(SC(C)C)cc2[nH]1"
  experimental_system: "RhoE promoter"
  reported_measurement: 2.2516
- molecule: "O=c1c(-c2ccc(O)cc2)coc2cc(O)cc(O)c12"
  experimental_system: "RhoE promoter"
  reported_measurement: 2.5938
- molecule: "CCCCOC(=O)c1ccc(O)cc1"
  experimental_system: "RhoE promoter"
  reported_measurement: 2.6043
- molecule: "O=c1cc(-c2cc(O)c(O)c(O)c2)oc2cc(O)cc(O)c12"
  experimental_system: "RhoE promoter"
  reported_measurement: 3.8448
- molecule: "CCN(CC)CCOc1ccc2c(c1)C(=O)c1cc(OCCN(CC)CC)ccc1-2 [Tilorone, reference compound]"
  experimental_system: "RhoE promoter"
  reported_measurement: 3.4862
- molecule: "COc1ccc(-c2coc3cc(OC(C)=O)cc(OC(C)=O)c3c2=O)cc1 [biochanin a diacetate]"
  experimental_system: "RhoE promoter"
  reported_measurement: 3.6564
- molecule: "COc1ccccc1-c1cc(=O)c2cccc(OC)c2o1"
  experimental_system: "RhoE promoter"
  reported_measurement: 2.7326

----------
The reader will find reported Composite Z value (induction of RhoE expression) values listed item by item below.
Test system: RhoE promoter
Experiment: RhoE promoter luc2 luciferase reporter screen for inducers of RhoE expression
Type: cell-based
Conditions: Table 1; luminescence at 24 hours, two replicates per compound
Where a name gives a salt, the structure may show the parent alone.
readout_name: Composite Z value (induction of RhoE expression)

- compound: "NNc1nncc2ccccc12 [hydralazine hydrochloride, reference compound]"
  experimental_system: "RhoE promoter"
  reported_measurement: 2.3583
- compound: "O=C1C[C@@H](c2ccc(O)cc2)Oc2cc(O)cc(O)c21 [Naringenin]"
  experimental_system: "RhoE promoter"
  reported_measurement: 2.3231
- compound: "COc1ccc(-c2cc(=O)c3c(O)cc(O)cc3o2)cc1 [Acacetin]"
  experimental_system: "RhoE promoter"
  reported_measurement: 3.2375
- compound: "COc1cc(O)c(C(=O)/C=C/c2ccccc2)c(OC)c1 [flavokawain b]"
  experimental_system: "RhoE promoter"
  reported_measurement: 3.604
- compound: "C[C@]12CC[C@H]3C(=CCc4cc(O)ccc43)[C@@H]1CCC2=O [Equilin, reference compound]"
  experimental_system: "RhoE promoter"
  reported_measurement: 2.3429
- compound: "Cc1ccc2cc3c(ccc4ccccc43)c3c2c1CC3 [3-methylcholanthrene]"
  experimental_system: "RhoE promoter"
  reported_measurement: 2.4062
- compound: "COc1cc(-c2coc3cc(O[C@@H]4O[C@H](CO)[C@@H](O)[C@H](O)[C@H]4O)c(OC)c(O)c3c2=O)cc(O)c1OC [Iridin]"
  experimental_system: "RhoE promoter"
  reported_measurement: 2.7194
- compound: "CC1=C(/C=C/C(C)=C/C=C/C(C)=C/C(=O)O)C(C)(C)CCC1 [Tretinoin, reference compound]"
  experimental_system: "RhoE promoter"
  reported_measurement: 2.2603
- compound: "COc1ccc2oc3ccccc3c(=O)c2c1 [2-methoxyxanthone]"
  experimental_system: "RhoE promoter"
  reported_measurement: 3.8383
- compound: "CCCSc1ccc2nc(NC(=O)OC)[nH]c2c1 [Albendazole, reference compound]"
  experimental_system: "RhoE promoter"
  reported_measurement: 3.0534
- compound: "c1ccc2[nH]c(-c3cscn3)nc2c1 [Tiabendazole, reference compound]"
  experimental_system: "RhoE promoter"
  reported_measurement: 3.5924
- compound: "COc1ccc(C(=O)/C=C/c2ccccc2)cc1 [4′-methoxychalcone]"
  experimental_system: "RhoE promoter"
  reported_measurement: 3.8036
- compound: "O=c1c2ccccc2oc2ccc(O)cc12 [2-hydroxyxanthone]"
  experimental_system: "RhoE promoter"
  reported_measurement: 2.2158
- compound: "O=c1c(O)c(-c2ccc(O)cc2)oc2cc(O)cc(O)c12 [Kaempferol]"
  experimental_system: "RhoE promoter"
  reported_measurement: 6.2959
- compound: "COc1ccc(-c2cc(=O)c3ccccc3o2)cc1OC [3′,4′-dimethoxyflavone]"
  experimental_system: "RhoE promoter"
  reported_measurement: 2.21
- compound: "COc1ccc(C2CC(=O)c3ccc(OC)cc3O2)cc1 (stereo not drawn) [liquiritigenin dimethyl ether]"
  experimental_system: "RhoE promoter"
  reported_measurement: 4.6362
- compound: "CC(C)C[C@H](NC(=O)OCC1c2ccccc2-c2ccccc21)C(=O)O [n-(9-fluorenylmethoxycarbonyl)-1-leucine]"
  experimental_system: "RhoE promoter"
  reported_measurement: 2.8734
- compound: "Oc1ccc(OCc2ccccc2)cc1 [Monobenzone, reference compound]"
  experimental_system: "RhoE promoter"
  reported_measurement: 2.1629

----------
Let's look at some molecules and their measured Composite Z value (induction of RhoE expression).
System: RhoE promoter
Experiment: RhoE promoter luc2 luciferase reporter screen for inducers of RhoE expression
Assay type: cell-based
Details: Table 1; luminescence at 24 hours, two replicates per compound
readout_name: Composite Z value (induction of RhoE expression)

- molecule: "COc1ccc(CC(=O)c2ccc(O)cc2O)cc1 [Ononetin]"
  reported_measurement: 2.6414
- molecule: "CCCOc1ccc2nc(NC(=O)OC)[nH]c2c1 [Oxibendazole, reference compound]"
  reported_measurement: 2.2003
- molecule: "CC1(C)C=Cc2cc3ccc(=O)oc3cc2O1 [Xanthyletin]"
  reported_measurement: 2.6831
- molecule: "CC(C)OC(=O)Nc1cccc(Cl)c1 [Chlorpropham]"
  reported_measurement: 2.5656
- molecule: "COc1cc(OC)c2c(=O)c(-c3ccc4c(c3)OCO4)coc2c1 [Derrustone]"
  reported_measurement: 2.3814
- molecule: "COc1ccc(-c2cc(=O)c3c(OC)cc(OC)cc3o2)cc1 [5,7,4′-trimethoxyflavone]"
  reported_measurement: 5.4102
- molecule: "Cl.NNCc1ccccc1 [benzylhydrazine hydrochloride]"
  reported_measurement: 2.3759

----------
Each entry below carries its reported Composite Z value (induction of RhoE expression).
Tested on: RhoE promoter
Test: RhoE promoter luc2 luciferase reporter screen for inducers of RhoE expression
Assay type: cell-based
Settings: Table 1; luminescence at 24 hours, two replicates per compound
readout_name: Composite Z value (induction of RhoE expression)

- molecule: "CCOC(=O)C1(O)Oc2cc(OC)cc(OC)c2C(=O)C1c1ccccc1 (stereo not shown)"
  reported_measurement: 2.164
- molecule: "O=c1cc(-c2ccc(O)cc2)oc2cc(O[C@@H]3O[C@H](CO)[C@@H](O)[C@H](O)[C@H]3O)cc(O)c12 [Cosmosiin]"
  reported_measurement: 4.8646
- molecule: "C=C(C)c1cc2cc(C(C)=O)c(O)cc2o1 [Euparin]"
  reported_measurement: 2.4662
- molecule: "COc1ccc(-c2cc(=O)c3c(O)cc(O)cc3o2)cc1O [Diosmetin]"
  reported_measurement: 4.5672
- molecule: "COc1ccc2c(c1)OCC(=Cc1ccc(O)c(O)c1)C2=O [sappanone a 7-methyl ether]"
  reported_measurement: 2.4579
- molecule: "O=c1c2ccccc2[se]n1-c1ccccc1 [Ebselen]"
  reported_measurement: 2.3104
- molecule: "CNc1ccccc1C(=O)N1CCc2c([nH]c3ccccc23)C1=O [Rhetsinine]"
  reported_measurement: 3.357
- molecule: "O=C(Nc1ccccc1)Nc1ccccc1 [Diphenylurea]"
  reported_measurement: 3.1382
- molecule: "COc1cc(OC)c2c(=O)c(-c3ccccc3)coc2c1 [5,7-dimethoxyisoflavone]"
  reported_measurement: 3.2977
- molecule: "CC(C)N(C(=O)CCl)c1ccccc1 [Propachlor]"
  reported_measurement: 2.8556

Cited source: patent US20110091387A1
